Where do these numbers come from? They come from patent US20250218201A1.

experiment: Annexin V / SYTOX AADvanced flow cytometry of cell death states; type: cell-based; details: human; Jurkat cells, 2 μM staurosporine, three hours; read-out: viable cells (flow cytometry, Annexin V/SYTOX staining)
assayMetric: viability at 3 h, 2 μM (%)
Give bare numbers, in %.

// sample CN[C@@H]1C[C@H]2O[C@@](C)([C@@H]1OC)n1c3ccccc3c3c4c(c5c6ccccc6n2c5c31)C(=O)NC4 , its viability at 3 h, 2 μM was 14.5
